- Experiment notes: AUC (0 to 8 hrs) in mouse at 50 mg/kg, po by LC-MS analysis
- Assay type: ADME, organism-based
- Parameters: dose 50 mg/kg, time < 8 hr, route oral
- Settings: in vivo
Endpoint label: AUC(0-t) at 8 h (µM·h)

1) Cl.NCCN(C(=O)c1ccc(F)cc1C(F)(F)F)c1ccc(OCc2ccc(Cl)cc2)cc1 26
2) Cc1cc(C)cc(COc2ccc(N(CCN)C(=O)c3cccnc3Cl)cc2)c1.Cl.Cl 10.9
3) CC(C)c1ccc(COc2ccc(N(CCN)C(=O)c3ccc(F)cc3C(F)(F)F)cc2)cc1.Cl 11.1
4) CC(C)c1ccc(COc2ccc(N(CCN)C(=O)c3cccnc3Cl)cc2)cc1.Cl 12.3
5) CC(C)c1ccc(COc2ccc(N(CCN)C(=O)c3ccc(Cl)cc3Cl)cc2)cc1.Cl 21

Recorded values, source ChEMBL document CHEMBL4000252.
